Test system: CP191
assay.text: qHTS profiling for inhibitors of Plasmodium falciparum proliferation (AID 504749); also: nearly all actives have a fitted effect of over 60% in size
conditions.used: P. falciparum in erythrocytes, SYBR Green DNA, 72 h; series mostly up to 28.7 µM
Results filed as inconclusive are left out. Active and inactive are the calls of the source. Calls follow the shape of the dose curve; as a rule, active = well fitted inhibition curve with a large enough effect; inconclusive = small, poorly fitted or top-dose-only effect; inactive = flat fitted curve, though single readings scatter.
// allowed return values: active, inactive

[[record]]
molecule = "CCCCCCCCCCCCCCCC(=O)OCC(COP(=O)(O)OCC[N+](C)(C)C)OC(=O)CCCCCCCCCCCCCCC (stereo not drawn)"
label = "inactive"


q: Recorded call for CC1OC(OC2CCC3(C)C(CCC4C3CC(O)C3(C)C(C5=CC(=O)OC5)CCC43O)C2)CC(O)C1OC1CC(O)C(OC2CC(O)C(OC3OC(CO)C(O)C(O)C3O)C(C)O2)C(C)O1 (stereo not drawn) ?
a: inactive

q: Recorded call for C[C@@H]1CC2C3CCC4=CC(=O)C=C[C@]4(C)[C@@]3(F)[C@@H](O)C[C@]2(C)[C@@]1(O)C(=O)COC(=O)c1cccc(S(=O)(=O)O)c1 (stereo partly drawn) ?
a: inactive

q: Recorded call for CC1=C(c2ccc(NN=C(C#N)C#N)cc2)NNC(=O)C1 ?
a: inactive

====

measured.on: Cytochrome P450 1A2 (Homo sapiens) (UniProt P05177)
Sequence (P05177 whole entry, looked up): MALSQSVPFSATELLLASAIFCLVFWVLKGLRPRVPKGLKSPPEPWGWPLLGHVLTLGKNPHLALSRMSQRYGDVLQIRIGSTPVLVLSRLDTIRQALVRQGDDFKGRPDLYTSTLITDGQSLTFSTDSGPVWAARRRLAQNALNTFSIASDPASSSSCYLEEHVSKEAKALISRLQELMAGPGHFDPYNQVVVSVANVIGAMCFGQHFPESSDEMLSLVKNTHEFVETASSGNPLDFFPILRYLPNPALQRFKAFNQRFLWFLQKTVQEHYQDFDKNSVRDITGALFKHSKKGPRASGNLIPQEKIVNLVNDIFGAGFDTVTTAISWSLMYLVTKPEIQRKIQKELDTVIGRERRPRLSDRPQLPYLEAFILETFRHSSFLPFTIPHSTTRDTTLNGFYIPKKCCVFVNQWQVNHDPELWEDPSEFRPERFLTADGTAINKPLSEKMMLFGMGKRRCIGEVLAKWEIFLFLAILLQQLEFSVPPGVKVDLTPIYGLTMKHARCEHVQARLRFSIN
assay.text: p450-cyp1a2 (AID 410); also: potency is read from the fitted curve at half-maximal effect
conditions.used: recombinant CYP1A2, luciferin-ME demethylation, luminescence; series mostly up to 57 µM
Inconclusive results are not listed. Activity calls are given as the source filed them. Calls come from the whole dose curve.
quantity.kind: Potency

Below: 5 compounds and their reported Potency.
[[record]]
compound = "CCCCC[C@H](O)c1cccc(OCc2ccc3ccccc3n2)c1"
recorded_measurement = "0.794 µM (active)"

[[record]]
compound = "CCC/C=C(\\CCC)C(NS(=O)(=O)c1cccs1)c1ccc(C(=O)OC)cc1 (stereo not drawn)"
recorded_measurement = "12.6 µM (active)"

[[record]]
compound = "COC(=O)C1(CC(C)C)C=C2C(=C(C(C)C)C(=O)C2C)CN1 (stereo not drawn)"
recorded_measurement = "15.8 µM (active)"

[[record]]
compound = "COC(=O)[C@@]1(Cc2ccccc2)[C@H]2c3cc(C(=O)N4CCCC4)n(Cc4c(CO)[nH]cc(C)c4=O)c3C[C@H]2CN1C(=O)c1ccccc1"
recorded_measurement = "5.01 µM (active)"

[[record]]
compound = "COC(=O)[C@@]1(Cc2ccccc2)[C@H]2c3cc(C(=O)N4CCCC4)n(Cc4ccc(S(C)(=O)=O)cc4)c3C[C@H]2CN1C(=O)c1ccccc1"
recorded_measurement = "inactive"


Lab note: compound CCC/C=C(\CCC)C(NC(=O)c1ccc(C(F)(F)F)cc1)c1ccc(C(F)(F)F)cc1 (stereo not drawn) tested on Cytochrome P450 1A2 (Homo sapiens) (UniProt P05177); recorded Potency was inactive

Lab note: compound CC(C)[C@@H](CC(=O)N[C@@H]1CCCC[C@H]1C(=O)N[C@H](CC(=O)N[C@@H](CCC(=O)O)CC(=O)O)Cc1ccccc1)NC(=O)C[C@H](CO)NC(=O)[C@@H]1CNCC[C@H]1N tested on Cytochrome P450 1A2 (Homo sapiens) (UniProt P05177); recorded Potency was inactive

Lab note: compound COC(=O)[C@@]1(Cc2ccccc2)[C@H]2c3cc(C(=O)N(C)C)n(Cc4ccsc4Br)c3C[C@H]2CN1C(=O)c1ccccc1 tested on Cytochrome P450 1A2 (Homo sapiens) (UniProt P05177); recorded Potency was inactive
